- assay_target: T1, Rhesus monkey glycophorin A on Rhesus monkey red blood cells (Rhesus monkey, UniProt A0A1D5Q349 20-150)
- T1 construct: whole, on cells; also called Rhesus RBC; monkey GPA
- T1 sequence: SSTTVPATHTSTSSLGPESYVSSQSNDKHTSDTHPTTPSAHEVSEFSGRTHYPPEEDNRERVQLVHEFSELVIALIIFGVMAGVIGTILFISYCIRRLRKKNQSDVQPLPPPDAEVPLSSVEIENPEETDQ
- protocol: FACS, RBC Rh02
# fluorescence intensity annotations

>  <binder>
6C12B8/H8 (antibody, V domains shown, mouse IgG1/k from hybridoma; also called 6C12 parental; TPP-3422) VH: RVQLQQSGAELARPGASVKMSCKASGYTFTTYTIHWVKQKTGQGLEWIGYINPSSDYTRYNPKFKDKATLTTDKSSSTAYMKLNSLASDDSAVYYCQTGTRDYWGQGTTLTVSS VL: QIVLTQSPPIMSASPGEKVTMTCSAASSVSYIYWFQQKPGTSPKLWIYSTSTLPSGVPTRFSGSGSGTSYSLTISRMEAEDAATYYCHQRNSFPFTFGSGTKLEIR

>  <fluorescence intensity>
3410

$$$$
>  <binder>
Hu6C12-19 (antibody, V domains shown, IgG format; VH.1b + Vk.1b) VH: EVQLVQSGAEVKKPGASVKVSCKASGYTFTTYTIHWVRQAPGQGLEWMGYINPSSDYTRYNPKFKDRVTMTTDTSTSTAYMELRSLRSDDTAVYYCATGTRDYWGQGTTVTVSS VL: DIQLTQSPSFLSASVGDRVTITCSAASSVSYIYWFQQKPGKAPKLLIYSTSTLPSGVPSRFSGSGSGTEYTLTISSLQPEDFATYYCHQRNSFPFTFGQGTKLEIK

>  <fluorescence intensity>
1510

$$$$
>  <binder>
Hu6C12-14 (antibody, V domains shown, IgG format; VH.1e + Vk.1a) VH: EVQLVQSGAEVKKPGASVKVSCKASGYTFTTYTIHWVRQAPGQGLEWMGYINPSSDYTRYNPKFKDRVTLTTDTSTSTAYMELRSLRSDDTAVYYCATGTRDYWGQGTTVTVSS VL: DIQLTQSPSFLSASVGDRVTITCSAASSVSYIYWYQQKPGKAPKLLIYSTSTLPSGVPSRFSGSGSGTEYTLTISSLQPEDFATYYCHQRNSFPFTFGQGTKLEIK

>  <fluorescence intensity>
1480

$$$$
>  <binder>
Hu6C12-15 (antibody, V domains shown, IgG format; VH.1f + Vk.1a) VH: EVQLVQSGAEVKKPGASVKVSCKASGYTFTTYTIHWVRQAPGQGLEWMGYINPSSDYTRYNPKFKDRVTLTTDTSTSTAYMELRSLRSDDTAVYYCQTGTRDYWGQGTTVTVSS VL: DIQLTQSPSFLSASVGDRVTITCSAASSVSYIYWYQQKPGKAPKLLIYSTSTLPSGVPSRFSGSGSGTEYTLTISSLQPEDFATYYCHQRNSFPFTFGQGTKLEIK

>  <fluorescence intensity>
1480

$$$$
>  <binder>
Hu6C12-1 (antibody, V domains shown, IgG format; VH.1a + Vk.1) VH: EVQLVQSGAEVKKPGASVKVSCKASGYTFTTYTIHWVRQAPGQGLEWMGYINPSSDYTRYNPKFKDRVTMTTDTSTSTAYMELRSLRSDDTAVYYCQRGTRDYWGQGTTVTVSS VL: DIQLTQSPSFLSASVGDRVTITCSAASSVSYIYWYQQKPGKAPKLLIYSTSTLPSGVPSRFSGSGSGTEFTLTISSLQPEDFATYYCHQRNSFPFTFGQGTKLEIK

>  <fluorescence intensity>
1120

$$$$
